Entries and their protein stability index
B1: TRAF3IP2 (parent)
chain: KEHVPTWLQNTHVYSWPKNKKNIL

Variants of: B1
testProtocol: protein stability index of a GFP-peptide fusion (GPS, HEK-293T) (PSI 1-6); higher = more stable;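 further: lentivirally expressed fusions sorted by FACS into six bins by GFP to DsRed ratio, PSI derived from sequencing read proportions per bin multiplied by bin number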
reportedConditions: c terminus: a fixed tail appended
// return a plain number; no unit text

Before answering, review these 10 worked examples.
[Q] // query protein stability index value for entry "I23C"
[A] 3.02

[Q] Also "V4C" ?
[A] 1.87

[Q] Also "P17N" ?
[A] 1.95

[Q] Also "K1M" ?
[A] 2.33

[Q] Also "S15E" ?
[A] 2.6

[Q] Also "W16F" ?
[A] 2.7

[Q] Also "K21V" ?
[A] 2.03

[Q] Also "N22L" ?
[A] 1.7

[Q] Also "N19M" ?
[A] 1.97

[Q] Also "H12T" ?
[A] 2.82

***
[Q] // query protein stability index value for entry "P17K"
[A] 2.31

[Q] Also "L8I" ?
[A] 2.54
